target: CDK2/CycE (Homo sapiens, UniProt P24941); construct: GST; purchased ProQinase GmbH (Freiburg, Germany); host or cells: insect cells (Sf9); test: CDK2/CycE kinase assay (TR-FRET); assay type: biochemical; conditions: avg, read-out: CDK2 avg (IC50 [mol/l])
pIC50: −log10 of the molar value.
MEASURED PARAMETER: pIC50

• Cc1noc(-c2cccc(NC(=O)c3c(C)nsc3Nc3cnc4ccccc4n3)c2)n1 [Example 106] = ≤ 4.70
• Cc1nsc(Nc2cnccn2)c1C(=O)Nc1ccc(OCCCN)nc1 [Example 48] = ≤ 4.70
• Cc1nsc(Nc2cnc3ccccc3n2)c1C(=O)Nc1cccc(NS(=O)(=O)C2CCN(CC(F)(F)F)CC2)c1 [Example 281] = < 4.70
• CCCN1CC[C@@H](Oc2ccc(NC(=O)c3c(C)nsc3Nc3cnc(C(F)(F)F)cn3)cn2)[C@H](F)C1 [Example 371] = < 4.70

Value source: patent US20170334899A1
